- System: NCI-H929 complex spheroids, viability % test/control
- MEASUREMENT DESCRIPTION: Anticancer human tumor NCI-H929 cell line growth inhibition [RAS];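 note: compound exposure lasted seven days before viability was read; 100% = DMSO vehicle control viability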
- CONDITION CONTEXT: second compound 0.000949 µM; first compound 0.00316 µM; stronger effect = lower value
Assignment: determine reported viability, T/C for the given molecules.

Recall and state the measured viability, T/C for O=C(c1ccc(F)c(F)c1Nc1ccc(I)cc1F)N1CC(O)([C@@H]2CCCCN2)C1 + CCn1c(-c2cc(N3CCN(C)CC3)cnc2C(C)OC)c2c3cc(ccc31)-c1csc(n1)CC(NC(=O)C1CC1C)C(=O)N1CCCC(N1)C(=O)OCC(C)(C)C2 .
93.3%

Recall and state the measured viability, T/C for CC(C)n1nc(-c2ccc3oc(N)nc3c2)c2c(N)ncnc21 + CCn1c(-c2cc(N3CCN(C)CC3)cnc2C(C)OC)c2c3cc(ccc31)-c1csc(n1)CC(NC(=O)C1CC1C)C(=O)N1CCCC(N1)C(=O)OCC(C)(C)C2 .
111%
